Target or system UniProt P10323; metric log10 of IC50; compiled from varied reports.
Scale: log10; quantity: IC50; unit before log: mM

Below, 4 molecules whose answers are already recorded.
# assay system UniProt P10323: give log10 of IC50 of N=C(N)NS(=O)(=O)c1ccc(NC(=O)c2cccc(C(F)(F)F)c2)cc1
0.85

Tell me log10 of IC50 of O=C(NCCO)c1cc(-c2ccc([N+](=O)[O-])cc2)n[nH]1 when tested on UniProt P10323.
0.43

# assay system UniProt P10323: give log10 of IC50 of O=C(c1cc(-c2ccccc2)[nH]n1)N(CCO)CCO
0.23

Find log10 of IC50 for COc1ccc(-c2cc(C(=O)NCCOCCO)[nH]n2)cc1 on UniProt P10323 and write it down.
0.78

***
Give measured log10 of IC50 for N=C(N)NS(=O)(=O)c1ccc(NC(=O)c2ccc(F)cc2)cc1 (UniProt P10323).
0.85

Please indicate recorded log10 of IC50 of O=C(NCCO)c1cc(-c2ccc(Br)cc2)[nH]n1 measured with UniProt P10323.
-0.28

State log10 of IC50 on UniProt P10323. Entry: N=C(N)NS(=O)(=O)c1ccc(NC(=O)c2ccccc2Br)cc1
0.88

Param request: log10 of IC50 | system UniProt P10323 | item COc1ccc(C(=O)Nc2ccc(S(=O)(=O)NC(=N)N)cc2)cc1
0.34

Identify measured log10 of IC50 obtained with UniProt P10323 for CCCC(=O)Nc1ccc(-c2cc(C(=O)OCC)[nH]n2)cc1 .
1.23

Report log10 of IC50 under test system UniProt P10323 for CCOC(=O)c1cc(-c2ccc(NC(=O)CC)cc2)[nH]n1 .
1.15

Quote UniProt P10323 log10 of IC50 for entry CCCOC(=O)C1CCN(CC(=O)Nc2ccc(S(=O)(=O)N=C(N)N)cc2)CC1 .
0.52

----------
// compounds with pIC50 on Acrosin (Homo sapiens, UniProt P10323), multi-source literature
By convention, pIC50 is the negative base-10 log of a molar concentration.

Tell me measured pIC50 for CCOC(=O)c1cc(-c2ccc(NC(=O)c3ccc(Cl)cc3)cc2)n[nH]1 please.
2.48

State, in one line, measured pIC50 of N=C(N)NS(=O)(=O)c1ccc(NC(=O)c2ccc(Cl)cc2Cl)cc1
2.25

Entry COC(=O)C1CCN(CC(=O)Nc2ccc(S(=O)(=O)NC(=N)N)cc2)CC1 needs its pIC50 filled in; supply it.
2.03

More entries:
For the compound CCCCC(=O)Nc1ccc(S(=O)(=O)NC(=N)N)cc1 , give its reported pIC50.
2.80

Name the recorded pIC50 of the compound listed here: O=C(NCCCO)c1cc(-c2ccc([N+](=O)[O-])cc2)[nH]n1
2.51

----------
pIC50: −log10 of the molar value.
// note: pIC50 values for Acrosin (Homo sapiens, UniProt P10323) were reported in different studies
Assign Fulfilled to entries whose pIC50 meets or exceeds 3; assign Not fulfilled to the rest.

Worked cases, answers included:
Can CC(O)CNC(=O)c1cc(-c2ccc(Br)cc2)n[nH]1 (stereo not given) be said to have pIC50 at or above 3?
Fulfilled

Quick check: does CC(O)CNC(=O)c1cc(-c2ccc([N+](=O)[O-])cc2)[nH]n1 (stereo not given) have pIC50 greater than or equal to 3?
Not fulfilled

Is it the case that N=C(N)NS(=O)(=O)c1ccc(NC(=O)COc2ccc(Cl)cc2)cc1 has pIC50 reaching or exceeding 3?
Not fulfilled

---
Check the entry CCOC(=O)c1cc(-c2ccc(NS(=O)(=O)c3ccc(C)cc3)cc2)[nH]n1 : does pIC50 equal or exceed 3?
Fulfilled

Could you verify whether the entry O=C(c1cc(-c2ccc(Br)cc2)n[nH]1)N(CCO)CCO shows pIC50 of no less than 3?
Not fulfilled

Dear colleague, could you confirm whether O=C(c1cc(-c2cccc([N+](=O)[O-])c2)n[nH]1)N(CCO)CCO has pIC50 at or above 3?
Not fulfilled

Decide: pIC50 of CN(CCO)C(=O)c1cc(-c2cccc([N+](=O)[O-])c2)n[nH]1 >= 3?
Fulfilled

Please indicate if the recorded pIC50 for Cc1ccc(C(=O)Nc2ccc(S(=O)(=O)NC(=N)N)cc2)cc1 meets or exceeds 3.
Not fulfilled

Is it the case that CCOC(=O)c1cc(-c2ccc(NC(=O)CCCC(=O)O)cc2)n[nH]1 has pIC50 reaching or exceeding 3?
Not fulfilled

Check this compound for pIC50 at or above 3: CC(C)CCOC(=O)C1CCN(CC(=O)Nc2ccc(S(=O)(=O)NC(=N)N)cc2)CC1
Not fulfilled

----------
The following compounds were reported with pIC50 values on UniProtKB P10323 in different studies.
FYI, pIC50 means -log10 of a concentration in mol per litre.

Provide measured pIC50 value, entry: CCCC(=O)Nc1ccc(S(=O)(=O)NC(=N)N)cc1
2.02

Input CC1CCCCN1CC(=O)Nc1ccc(S(=O)(=O)N=C(N)N)cc1 (stereo not given) , output reported pIC50.
2.00

Report pIC50, nothing else, for this compound: O=C(NC(CO)(CO)CO)c1cc(-c2ccccc2)n[nH]1
3.03

Indicate its recorded pIC50; the compound in question is CCOC(=O)C1CCN(CC(=O)Nc2ccc(S(=O)(=O)N=C(N)N)cc2)CC1
2.52

Return value of pIC50 for input CC1CCN(CC(=O)Nc2ccc(S(=O)(=O)NC(=N)N)cc2)CC1 , no commentary.
2.30

Give pIC50 for O=C(c1cc(-c2ccc([N+](=O)[O-])cc2)n[nH]1)N(CCO)CCO
2.25

More entries:
Please report the measured pIC50 for CCOc1ccc(C(=O)Nc2ccc(S(=O)(=O)NC(=N)N)cc2)cc1
3.89

Using known records, supply pIC50 for CC(O)CNC(=O)c1cc(-c2cccc([N+](=O)[O-])c2)n[nH]1 (stereo not given)
2.74

Determine from records and report pIC50 for CCOC(=O)c1cc(-c2ccc(NC(=O)C(CC)c3ccccc3)cc2)n[nH]1 (stereo not given)
2.48

Provide only the value of recorded pIC50 for COc1ccc(OCC(=O)Nc2ccc(S(=O)(=O)N=C(N)N)cc2)cc1
2.01

Give pIC50 for CCOC(=O)c1cc(-c2ccc(NC(=O)c3ccccc3Br)cc2)n[nH]1
2.62

Tell me measured pIC50 for NC(N)=NS(=O)(=O)c1ccc(NC(=O)c2c(Cl)cccc2Cl)cc1 please.
2.22

Please give measured pIC50 of the following entry: O=C(NC(CO)(CO)CO)c1cc(-c2ccc([N+](=O)[O-])cc2)[nH]n1
2.28

Identify the reported pIC50 for the following entry. O=C(NCCOCCO)c1cc(-c2ccc([N+](=O)[O-])cc2)n[nH]1
2.68

Item CCOC(=O)c1cc(-c2ccc(NC(=O)C(F)(F)F)cc2)[nH]n1 : provide pIC50
2.10

Complete the entry with pIC50 for CC(CO)NC(=O)c1cc(-c2ccc(Br)cc2)n[nH]1 (stereo not given)
3.06

Consider the compound COc1ccc(-c2cc(C(=O)NCCO)[nH]n2)cc1 . State its measured pIC50.
4.05

Tell us which pIC50 value is on record for CCCCOC(=O)C1CCN(CC(=O)Nc2ccc(S(=O)(=O)NC(=N)N)cc2)CC1
2.02

For the compound CCOC(=O)c1cc(-c2ccc(NC(=O)c3ccc(CCl)cc3)cc2)n[nH]1 , report pIC50.
2.48

Fill in pIC50 for record O=C(NCCCO)c1cc(-c2cccc([N+](=O)[O-])c2)[nH]n1
3.11

----------
Kindly find below log10(IC50) information for Acrosin (Homo sapiens) taken from the literature.
In plain terms, each number is the log10 of measured IC50 in mM.

Examples with their reported log10(IC50) follow.
With Acrosin (Homo sapiens) as the test system, provide measured log10(IC50) for this compound: NC(N)=NS(=O)(=O)c1ccc(NC(=O)c2ccc(Cl)c(Cl)c2)cc1
0.58

Report log10(IC50) under test system Acrosin (Homo sapiens) for CCOC(=O)c1cc(-c2ccc(NC(=O)c3ccccc3)cc2)n[nH]1 .
0.90

Recall the reported log10(IC50) of N=C(N)NS(=O)(=O)c1ccc(NC(=O)c2ccccc2Cl)cc1 when tested on Acrosin (Homo sapiens).
0.80

***
Lab note: Acrosin (Homo sapiens) assay, enter log10(IC50) for O=C(NCCOCCO)c1cc(-c2cccc([N+](=O)[O-])c2)n[nH]1 here
0.96

Recall the reported log10(IC50) of COC(=O)c1ccc(OC(=O)c2ccc(NC(=N)N)cc2)cc1 when tested on Acrosin (Homo sapiens).
-1.57

// output log10(IC50); input CCOC(=O)c1cc(-c2ccc(NC(=O)CCC(=O)O)cc2)[nH]n1 ; system Acrosin (Homo sapiens)
0.97

State, for Acrosin (Homo sapiens), measured log10(IC50) of the compound listed here: CCOC(=O)c1cc(-c2ccc(NC(C)=O)cc2)[nH]n1
1.36
